Values compiled from the supplement of paper PMC12455559.

- procedure_summary: PET hydrolysis, aromatic products released after 48 h (umol product/mg enzyme); higher = more PET depolymerization activity
- settings: substrate: aFilm; 40 °C; pH 7.5
property: PET hydrolysis
Please respond with just the number, no unit label.

input: Read the entry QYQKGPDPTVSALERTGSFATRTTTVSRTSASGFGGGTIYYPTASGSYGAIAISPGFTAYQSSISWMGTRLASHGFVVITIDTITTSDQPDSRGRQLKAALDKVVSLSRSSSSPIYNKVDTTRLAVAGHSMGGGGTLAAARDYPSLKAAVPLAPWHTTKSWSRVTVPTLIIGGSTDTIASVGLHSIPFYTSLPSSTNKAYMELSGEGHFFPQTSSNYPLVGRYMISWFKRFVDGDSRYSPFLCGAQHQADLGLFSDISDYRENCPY [ESM169] and write its reported PET hydrolysis.
output: 18.5

---

Exercise: state measured PET hydrolysis for each of the sequences provided.
- procedure_summary: PET hydrolysis, aromatic products released after 48 h (umol product/mg enzyme); higher = more PET depolymerization activity
- settings: substrate: cryPow; 60 °C; pH 7.5

input: Return PET hydrolysis for the following sequence: DQGPPPTIASLSVDGAYAVMTYTDIPDVPEFGDATVYYPVDTAMPIGGVAISPGWTELQRHIEWWGPRLASHGYAVLILDTNDAMADQPEQRAEALIAAVRILRGENDRAGSPLSGRIDTEKMAIMGHSMGGGGVLIAANNYPAEIQAAIPFTPWQPAGDFSQVVAPTLVMAGSADRVASVSDHAWPHYQSIPESTIKVFLEIDGGSHFIADTSRGEDLGTIGRYGIAWLKLYLDGDERYRGFIYGDEAASDSEKFSRYVTSP [TEP021]
output: < 3

input: For the sequence ATTSFQRGPAPTTASIQATSGPFATSQTTVSRISVTGFGGGDIYYPTSTSSGTFGAVAIAPGYTALRSSMAWLAPRIASQGFVVFNIDTLTTSDQPATRGTELLAALDYLTTRSTVRTRIDTTRLAVMGHSMGGGGTLEAAKSRPSLQAAIPLTPWDLNKSFAGLAVPTLIIGAQADTVAPVSQHAKPFFTSLPSGLDKAYLELAGASHFAPNTSNTTIASISIAWLKRFVDDDTRYDQFLCPGPTVGTAVSQFTTNCPHIS [ESM156] , give its measured PET hydrolysis value.
output: < 3

---

What purified protein yield per well was measured for each of the following?
- procedure_summary: purified protein yield per well (BCA); higher = higher soluble expression

input: Please report purified protein yield per well for the following sequence: MRSDCSPPWRWWPGAALAPAANAAAPAHPVRLAANPYERGPAPTEASITAEKGPFAIERIDVPAGSGPGFNKGTIYAPTDLSQGTFGAIAVSPGFVSPQAWIDWYGPRLATQGFVVMTLETNSLFDVPAARGEQLLAALDYMTGGSRVKDRIDASRLAVMGHSMGGGGTLEAADDRPALQAAVPLAPWNTNYDWKNVRVPTMIMGADNDAIAPADSMAESYYDNLTSVPEKAYLELKNAGHMTFNSPNTTIAKYTIAWMKRFVDDDARYERFLCPEPAPGATIAQYEGTCPTG [TEP141]
output: < 25 µg

input: Report purified protein yield per well, nothing else, for this sequence: DEIGQAPTSSNITGNGSFSVSTYNISSLVTGFGGGVAYYPSTAGRYPVVAVSPGFTARWSSISWIGPRLASWGFVVVGIETNSVYDQPASRGSQLLAALNWAVNSAPSAITSRADGSRRGVAGHSMGGGGTLEALAADTTGNVKAGVPLAPWNSDKTWNNVNEPVQIIGGESDTVAGVSSHSIPFYNSLGGSKSYVELNGASHFFPQTTNATTSRALVSWFKRWLNQDARFTPFTCGYGGTAVSDFRTNAC [ESM177]
output: 71.4 µg

input: Give me measured purified protein yield per well, please, for this sequence: FRSRGATIFYPEEPSHPLASIVIVPGWSSSERSIRAWGPFLASHGMVTMTIGTNNPPRDFPEQRAAALLDAIATLRAENARDTSPIFEKLDLSRIAVGGWSMGGGGAQLAAVQDPALKAAIGLCPWHEAPDIFEHTVPLLIIGGEKDRRAPFNEHGLVHYCTTPPATPKLLFEVRDAGH [TEP100]
output: < 25 µg

---

- procedure_summary: purified protein yield per well (BCA); higher = higher soluble expression
property: purified protein yield per well

input: Dear colleague, please send me the reported purified protein yield per well for HGFNGGYIYYPTDTSQTFGAVAIVPAYTALFADEEAWMGPRLASFGFVVIGIETNSREDWDRARGAQLLAGLDYLTQHSAVRTRIDARRLAVIGHSMGGGGAFAAAARRPSLRAVVGLTPYFPSGDLATIRVPTLIIGGQNDTTVTPSYLERLYASLPTRTPSAYVMLADADHLFPTKPNPDQMRVLVPWLKIFVDKDVRYTRFLCPLADRSGISQYQVTCPLVPTV [TEP043] when you can.
output: < 25 µg

input: // Input: HAPAHAPAHQPVVAHHHAPFAVRTTVVPKTAVKAFGGGVIYTPQDTGKAVLGAVVITPGFTDTNADEKELAELVASQGFVAFAIDTLDTGDLPDQRATEILAAADYLTGQSAVRSEVSAKDVGLIGYSFGGGGTMQAAQARPSIKAAIGLMPFDFPPASDPNAQYPAYPKLTTPTLVITGQKDDVADPADFGKPAYDSIPGGTPKQYLELKGLDHYAGEHTPVAAIRNAVTAFLKRYLDGNSAYAKLICPAPKVGGPITASYSSCPKG [ESM190] . Output its purified protein yield per well only.
output: < 25 µg

---

- procedure_summary: PET hydrolysis, aromatic products released after 48 h (umol product/mg enzyme); higher = more PET depolymerization activity
- settings: substrate: cryPow; 40 °C; pH 6.5
Consider the following sequences; for each one, report its PET hydrolysis.
Number, no unit, nothing else.

input: Supply measured PET hydrolysis of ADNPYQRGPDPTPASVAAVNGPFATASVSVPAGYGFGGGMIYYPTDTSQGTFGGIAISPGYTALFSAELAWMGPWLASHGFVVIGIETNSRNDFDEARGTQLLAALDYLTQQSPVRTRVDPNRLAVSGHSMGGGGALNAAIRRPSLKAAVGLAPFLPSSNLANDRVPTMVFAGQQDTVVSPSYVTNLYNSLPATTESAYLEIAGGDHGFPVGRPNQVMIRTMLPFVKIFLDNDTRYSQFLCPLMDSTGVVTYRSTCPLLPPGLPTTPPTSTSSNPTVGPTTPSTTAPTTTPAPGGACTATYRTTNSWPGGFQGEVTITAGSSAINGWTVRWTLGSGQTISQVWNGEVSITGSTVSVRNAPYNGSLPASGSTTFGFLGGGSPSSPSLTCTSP [TEP165] in your reply.
output: 52

input: Supply reported PET hydrolysis belonging to this sequence: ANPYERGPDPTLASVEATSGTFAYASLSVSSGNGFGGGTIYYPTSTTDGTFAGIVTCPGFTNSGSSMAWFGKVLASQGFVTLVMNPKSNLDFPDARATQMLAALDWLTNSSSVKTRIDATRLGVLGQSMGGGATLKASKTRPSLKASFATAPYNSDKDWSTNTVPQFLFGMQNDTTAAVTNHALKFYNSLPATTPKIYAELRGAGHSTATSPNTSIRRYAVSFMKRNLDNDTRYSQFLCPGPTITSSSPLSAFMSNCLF [DP080]
output: 2

---

What PET hydrolysis was measured for each of the following?
- procedure_summary: PET hydrolysis, aromatic products released after 48 h (umol product/mg enzyme); higher = more PET depolymerization activity
- settings: substrate: cryPow; 40 °C; pH 4.5

input: Specify reported PET hydrolysis for the sequence shown: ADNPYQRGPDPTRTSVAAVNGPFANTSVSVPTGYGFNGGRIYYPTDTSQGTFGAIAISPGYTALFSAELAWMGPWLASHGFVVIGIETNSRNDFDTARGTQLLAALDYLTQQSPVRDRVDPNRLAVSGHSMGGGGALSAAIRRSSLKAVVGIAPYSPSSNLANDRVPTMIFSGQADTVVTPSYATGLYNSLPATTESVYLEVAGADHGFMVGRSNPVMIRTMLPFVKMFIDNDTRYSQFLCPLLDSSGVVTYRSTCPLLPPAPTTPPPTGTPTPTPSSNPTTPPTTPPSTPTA [ESM061]
output: 11

input: Identify measured PET hydrolysis associated with AQENPYERGPAPTAQNITEDGPFAYATATVPAQSGFAGGAIYYPTDTSQGTFGAVAAVPGFLTPVDDVAWMGPRLASHGFVVFTIEPNSRFEFPSGRAAALKAGLTYLTQSSAVRDRVDPTRLAVAGHSMGGGAALEAALKDPNLKAAVALQPWHTGVNFSTVNVPSMIVGAENDPIASPASHAEPFYEQIPAASEKAYLNLAGVGHEVGGVVTNDTQSSMMLTWLKRYVDNDTRYEPFMCPGPSGSSVLEYRGTCPG [TEP170]
output: < 3

input: Fill in PET hydrolysis for record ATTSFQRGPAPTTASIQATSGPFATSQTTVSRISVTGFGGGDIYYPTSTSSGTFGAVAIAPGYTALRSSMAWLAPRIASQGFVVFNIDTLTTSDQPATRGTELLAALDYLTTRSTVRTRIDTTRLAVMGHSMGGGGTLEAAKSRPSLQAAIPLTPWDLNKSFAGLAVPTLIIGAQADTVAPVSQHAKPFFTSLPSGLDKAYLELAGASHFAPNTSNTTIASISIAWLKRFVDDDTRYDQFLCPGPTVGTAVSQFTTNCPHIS [ESM156]
output: < 3

input: // Input: ADNPYQRGPDPTRTSVATERGPFANTSVSVPSGYGFNGGRIYYPTDTSQGTFGAIAISPGYTALFSAELAWMGPWLASHGFVVIGIETNSRNDFDTARGTQLLAALDYLTQQSPVRDRIDPNRLAVSGHSMGGGGALSAAMRRSSLKAVVGIAPYSPSSNLANDRVPTMIFSGQADTVVTPSYAMGLYNSIPAGTKSAYLEVAGGDHGFMVGRSNPVLIRTMLPFLKIFIDNDARYSQFLCPLLDNSGVVTYRSTCPFLPTTPTTPPPTG [ESM065] . Output its PET hydrolysis only.
output: 21

input: For the sequence LNPYQRGPNPTDAILEASSGPYATSSISVPSIVSGFGGGRIYYPTTTADGTFGGIAISPGFTATWSSLSWLGPRLASHGFVVIGIETNTIYDQPTSRGQQLLAALDYLVNTSSVRTRVDSSRLAVAGHSMGGGGTLWAANSRPSLQAAIPLAPWNTDKSWSGVRVPTLIVGGQSDTVAPVATHSIPFYTSIPAASEKAYLELRSASHFFPQTVNTTVAVSMVSWLKRYVDDDTRYDPWLCPGPSGLSVSDYRDTCPA [TEP178] , give its reported PET hydrolysis.
output: < 3

input: Annotate the sequence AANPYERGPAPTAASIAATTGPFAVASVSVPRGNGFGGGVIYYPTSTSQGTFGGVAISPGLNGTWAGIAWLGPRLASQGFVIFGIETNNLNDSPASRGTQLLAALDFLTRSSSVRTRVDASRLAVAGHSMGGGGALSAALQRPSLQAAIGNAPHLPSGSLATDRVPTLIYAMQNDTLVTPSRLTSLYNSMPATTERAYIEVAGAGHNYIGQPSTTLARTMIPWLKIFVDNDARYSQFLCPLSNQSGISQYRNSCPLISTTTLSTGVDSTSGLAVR [ESM157] with its measured PET hydrolysis.
output: < 3

input: Provide measured PET hydrolysis value, entry: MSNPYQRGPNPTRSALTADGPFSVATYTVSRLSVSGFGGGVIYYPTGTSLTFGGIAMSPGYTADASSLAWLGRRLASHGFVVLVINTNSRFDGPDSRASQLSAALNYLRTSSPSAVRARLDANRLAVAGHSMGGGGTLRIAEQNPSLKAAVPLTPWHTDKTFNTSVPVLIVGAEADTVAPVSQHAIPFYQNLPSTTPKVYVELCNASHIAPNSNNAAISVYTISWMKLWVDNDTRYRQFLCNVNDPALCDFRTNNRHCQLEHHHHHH [LCC-ICCG]
output: 20.1

input: State its PET hydrolysis for this sequence: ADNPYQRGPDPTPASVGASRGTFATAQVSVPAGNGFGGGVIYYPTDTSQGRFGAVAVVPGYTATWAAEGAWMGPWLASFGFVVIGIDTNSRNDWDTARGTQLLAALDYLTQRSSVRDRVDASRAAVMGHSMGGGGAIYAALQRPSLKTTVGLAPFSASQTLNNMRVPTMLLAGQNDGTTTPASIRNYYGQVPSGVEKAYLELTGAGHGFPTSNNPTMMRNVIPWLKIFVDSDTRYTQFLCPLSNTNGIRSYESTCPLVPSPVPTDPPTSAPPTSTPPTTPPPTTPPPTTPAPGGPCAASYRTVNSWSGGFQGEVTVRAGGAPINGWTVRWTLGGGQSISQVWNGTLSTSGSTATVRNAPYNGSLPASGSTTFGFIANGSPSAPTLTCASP [TEP013]
output: < 3

input: Please give the documented PET hydrolysis of ADNPYQRGPDPTPQSISATTGPFATASVTVPRQGNFGGGVIYYPTDTSQGTFGAVAISPGLNGTWPGIAWLGPRLSSQGFVVFGIDTLGLNDSTASRGSQLLAALDYLTQTSSVRTRVDASRLAVAGHSMGGGGAFEAVLRRPTLKASIPNAPFFPGSAANVRVPTLITAMQNDSLVGQNRNAYNGIPAGVEKAYIELAGAGHNQIGQPTTAIARNWIPWLKIFVDNDARYHQFFCPTTNMSGLSQYLNTCPLTSATPPTSSPSAGPTTPGPTGPPPGGACAATYQTVNTWSGGYQGEMTVRAGNSAINGWTVRWTMGGGQISQVWNGTLVTGSGAAAVRNAPYNGALAAGATTTFGFISSGTPSATSLTCATP [ESM064]
output: < 3

input: Give recorded PET hydrolysis. ATGPSSPCTNCTRGPNPTVAALKSNSGPFSTAKFSVSGYLKGFGDSTVYYPTNTTGKMGAIAVIPGYLSYESSIEWWGPRLASHGFVVITMNTNTIYDQPDSRATQLSKALDYVIAQSNSSSSPIAGKVDSTRLGAIGWSMGGGGSLKLSTQRSLNAIIPQAPYYAGSNSFNTIKTPTLILACGVDAVAPVAAHASPFYNKIPNTTPKAFLEIYGGSHFCANSGYPNQDLLGMYGISWMKRFIDFDKRYSQFLCGPNHQADLAISEYRQNCNY [ESM048]
output: < 3
